study.system: Proto-oncogene tyrosine-protein kinase Src (Homo sapiens, UniProt P12931)
Sequence (P12931 2-536 limits assumed): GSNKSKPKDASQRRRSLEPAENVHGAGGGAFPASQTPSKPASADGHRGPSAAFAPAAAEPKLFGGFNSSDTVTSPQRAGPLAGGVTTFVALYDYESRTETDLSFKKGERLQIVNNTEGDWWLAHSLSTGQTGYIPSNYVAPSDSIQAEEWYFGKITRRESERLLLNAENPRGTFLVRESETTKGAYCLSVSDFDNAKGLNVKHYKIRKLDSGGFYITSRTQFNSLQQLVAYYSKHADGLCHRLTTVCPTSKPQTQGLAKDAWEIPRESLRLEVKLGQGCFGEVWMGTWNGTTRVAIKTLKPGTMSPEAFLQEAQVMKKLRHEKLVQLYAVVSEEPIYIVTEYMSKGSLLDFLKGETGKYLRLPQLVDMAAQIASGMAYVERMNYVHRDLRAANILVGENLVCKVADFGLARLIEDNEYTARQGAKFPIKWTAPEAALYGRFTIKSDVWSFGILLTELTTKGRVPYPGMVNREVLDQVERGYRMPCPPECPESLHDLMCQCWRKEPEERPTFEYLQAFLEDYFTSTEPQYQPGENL
quantity: IC50 (nM)
Give the number; nM is assumed, so skip it.

Exercise: Can you look up IC50 on Proto-oncogene tyrosine-protein kinase Src (Homo sapiens, UniProt P12931) for O=C1NC(=O)c2c1c1[nH]cnc1c1[nH]c3ccccc3c21 [GRANULATIMIDE] ?
Key: 350

###

study.system: Serine/threonine-protein kinase Chk1 (Homo sapiens) (UniProt O14757)
Sequence (O14757 whole entry): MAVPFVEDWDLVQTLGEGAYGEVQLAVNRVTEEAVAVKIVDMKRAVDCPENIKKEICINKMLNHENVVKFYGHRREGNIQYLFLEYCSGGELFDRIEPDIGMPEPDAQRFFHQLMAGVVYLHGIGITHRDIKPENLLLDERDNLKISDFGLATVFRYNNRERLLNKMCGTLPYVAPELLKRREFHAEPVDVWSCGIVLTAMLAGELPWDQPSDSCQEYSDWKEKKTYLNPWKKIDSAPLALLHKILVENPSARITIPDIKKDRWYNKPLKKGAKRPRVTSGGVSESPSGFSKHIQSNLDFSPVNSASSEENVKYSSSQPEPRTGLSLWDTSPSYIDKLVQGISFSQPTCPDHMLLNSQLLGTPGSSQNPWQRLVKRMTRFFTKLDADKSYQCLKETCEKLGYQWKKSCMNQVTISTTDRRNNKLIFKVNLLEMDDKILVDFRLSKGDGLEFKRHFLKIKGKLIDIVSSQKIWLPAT
experimental.protocol: Inhibition of human Chk1 expressed in Sf9 cells at 10 uM
Assign YES to entries whose inhibition meets or exceeds 70%; assign NO to the rest.

• O=c1ccc(=O)c2c1c1[nH]c3ccccc3c1c1c(=O)[nH]c(=O)c21 = YES
• O=C1NC(=O)c2c1c1c(O)ccc(O)c1c1[nH]c3ccc(O)cc3c21 = YES
• Cc1ccc2[nH]c3c4c(=O)ccc(=O)c4c4c(=O)[nH]c(=O)c4c3c2c1 = YES

Exercise: Check this molecule for inhibition at or above 70%: `CC(C)(C)C(=O)Oc1ccc(O)c2c3c(c4c5ccccc5[nH]c4c12)C(=O)NC3=O`
Key: NO

Exercise: State whether the measured inhibition reaches 70%, counting equality as reaching it, for `O=C1NC(=O)c2c1c1c(O)ccc(O)c1c1[nH]c3ccccc3c21`
Key: YES

Exercise: In plain terms: is recorded inhibition at least 70% for `O=C1NC(=O)c2c1c1c(O)cccc1c1[nH]c3ccccc3c21` ?
Key: YES

Exercise: Answer whether inhibition of `O=C1NC(=O)c2c1c1c(O)ccc(OS(=O)(=O)O)c1c1[nH]c3ccccc3c21` is greater than or equal to 70%.
Key: NO

Exercise: Entry `O=C1NC(=O)c2c1c1c(c3[nH]c4ccccc4c23)C(=O)CCC1` : is its inhibition no less than 70%?
Key: NO

Exercise: Decide: is the reported value of inhibition for O=c1[nH]c(=O)c2c1c1[nH]c3ccccc3c1c1c(=O)[nH]c(=O)c21 [BIS-IMIDE A] equal to or greater than 70%?
Key: YES

Exercise: Exam item: decide whether the reported inhibition for `O=c1ccc(=O)c2c1c1[nH]c3ccc(O)cc3c1c1c(=O)[nH]c(=O)c21` is at least 70%.
Key: YES

Exercise: Tell me whether inhibition is at least 70% here: `Cc1ccc2[nH]c3c4c(O)ccc(O)c4c4c(c3c2c1)C(=O)NC4=O`
Key: YES
